Where these numbers come from: paper PMC3697071

Please provide measured IC50 for the entries that follow.
Tested on: Candida albicans ATCC 90028
ASSAY EXPLANATION: Antimicrobial assay
Type: cell-based
SETUP CONDITIONS: Candida albicans, ATCC90028, read-out: C. albicans IC50
Give the number; µg/mL is assumed, so skip it.

Value wanted: IC50 (Candida albicans ATCC 90028) of entry CC(C)C1=CC2=CC(=O)[C@H]3C(C)(C)CCC[C@]3(C)C2=C(O)C1=O
12.5

Value wanted: IC50 (Candida albicans ATCC 90028) of entry C[C@@H]1[C@H](O)[C@@H](C)/C=C/C=C/C=C/C=C/C=C/C=C/C=C/[C@H](O[C@@H]2O[C@H](C)[C@@H](O)[C@H](N)[C@@H]2O)C[C@@H]2O[C@](O)(C[C@@H](O)C[C@@H](O)[C@H](O)CC[C@@H](O)C[C@@H](O)CC(=O)O[C@H]1C)C[C@H](O)[C@H]2C(=O)O [Amphotericin B, reference compound]
0.43

* * *

Test system: Pseudomonas aeruginosa ATCC 27853
ASSAY EXPLANATION: Antimicrobial assay
Assay type: cell-based
SETUP CONDITIONS: Pseudomonas aeruginosa, ATCC27853, read-out: P. aureginosa IC50
MEASURED PARAMETER: IC50

Name the recorded IC50 for CC(C)C1=C(O)C(=O)C2=C(CC[C@H]3C(C)(C)CCC[C@]23C)C1=O .
> 20 µg/mL

Name the recorded IC50 for CC(C)c1cc2c(cc1O)[C@@]1(C)CCCC(C)(C)[C@@H]1CC2 .
> 20 µg/mL

Name the recorded IC50 for CC(C)C1=CC2=CC(=O)[C@H]3C(C)(C)CCC[C@]3(C)C2=C(O)C1=O .
> 20 µg/mL

Name the recorded IC50 for O=C(O)c1cn(C2CC2)c2cc(N3CCNCC3)c(F)cc2c1=O [Ciprofloxacin, reference compound] .
0.06 µg/mL

* * *

System: methicillin-resistant S. aureus ATCC 43300 (MRS)
ASSAY EXPLANATION: Antimicrobial assay
Format: cell-based, Staphylococcus aureus
SETUP CONDITIONS: methicillin-resistant S. aureus; second value of IC50/MIC
MEASURED PARAMETER: MRS MIC

Name the recorded MRS MIC for CC(CO)c1cc2c(c(O)c1O)[C@@]1(C)CCCC(C)(C)C1=C(O)C2=O (stereo partly shown) [Compound 8] .
20 µg/mL

Name the recorded MRS MIC for CC(C)C1=CC2=CC(=O)[C@H]3C(C)(C)CCC[C@]3(C)C2=C(O)C1=O [Compound 3, taxodione] .
2.5 µg/mL

Name the recorded MRS MIC for CC(C)c1cc2c(cc1O)[C@@]1(C)CCCC(C)(C)[C@@H]1CC2 [Compound 6, ferruginol] .
2.5 µg/mL

Name the recorded MRS MIC for CC(C)c1cc2c(c(O)c1O)[C@@]1(C)CCCC(C)(C)C1=C(O)C2=O [Compound 7, 6-hydroxysalvinolone] .
2.5 µg/mL

* * *

Tested on: Aspergillus fumigatus ATCC 90906
ASSAY EXPLANATION: Antimicrobial assay
Type: cell-based
SETUP CONDITIONS: first value of IC50/MIC
MEASURED PARAMETER: A. fumigatus IC50

INSERT INTO results (compound, measured_parameter, reported_result) VALUES
  ('CC(CO)c1cc2c(c(O)c1O)[C@@]1(C)CCCC(C)(C)C1=C(O)C2=O (stereo partly shown)', 'A. fumigatus IC50', '−/− (- =Not Active)'),
  ('CC(C)c1cc2c(c(O)c1OC1OCC(O)C(O)C1O)C1(C)CCCC(C)(C)C1CC2 (stereo not shown)', 'A. fumigatus IC50', '−/− (- =Not Active)'),
  ('CC(C)c1cc2c(c(O)c1O)[C@@]1(C)CCCC(C)(C)C1=C(O)C2=O [Compound 7, 6-hydroxysalvinolone]', 'A. fumigatus IC50', '11.2 µg/mL'),
  ('CC1=C(C)C2=CC(=O)c3c(O)c4c(c(O)c3[C@@]2(C)CC1)O[C@@H](C)C4', 'A. fumigatus IC50', '−/− (- =Not Active)');
